System: large (Lg) crabgrass (Digitaria sanguinalis)
TEST DESCRIPTION: Test D pre-/postemergence plant response
Assay type: in vivo
RUN PARAMETERS: Postemergence, 125 g ai/ha; scale 0 to 100, 0 no effect, 100 complete control
# Plant response rating, Crabgrass, Large per entry
Lab note: jot the number down without any unit.

> print(dat)
                                     smiles  result
1   CC(F)(F)c1cc(-c2ccccc2Oc2ncc(Cl)cn2)on1      15
2      FC(F)c1cc(-c2ccccc2Oc2ncc(Br)cn2)on1      15
3          Cc1cc(-c2ccccc2Oc2ncc(Cl)cn2)no1      10
4  FC(Cl)(Cl)c1cc(-c2ccccc2Oc2ncc(Cl)cn2)no1      30
5  Fc1ccc(Oc2ncc(Cl)cn2)c(-c2cc(C(F)F)on2)c1F      25
6  FC(F)(F)c1cc(-c2c(Cl)cccc2Oc2ncc(Cl)cn2)no1      10
7         Clc1cnc(Oc2ccccc2-c2cc(Cl)sn2)nc1      10

Here's the next entry for you.
Query: For the molecule Clc1cnc(Oc2ccccc2-c2ccon2)nc1 , what Plant response rating, Crabgrass, Large is on record?
Response: 10
